Data origin, for the record: ChEMBL document CHEMBL1145877

Target: DNA topoisomerase 1 (Homo sapiens) (UniProt P11387)
Sequence (whole entry): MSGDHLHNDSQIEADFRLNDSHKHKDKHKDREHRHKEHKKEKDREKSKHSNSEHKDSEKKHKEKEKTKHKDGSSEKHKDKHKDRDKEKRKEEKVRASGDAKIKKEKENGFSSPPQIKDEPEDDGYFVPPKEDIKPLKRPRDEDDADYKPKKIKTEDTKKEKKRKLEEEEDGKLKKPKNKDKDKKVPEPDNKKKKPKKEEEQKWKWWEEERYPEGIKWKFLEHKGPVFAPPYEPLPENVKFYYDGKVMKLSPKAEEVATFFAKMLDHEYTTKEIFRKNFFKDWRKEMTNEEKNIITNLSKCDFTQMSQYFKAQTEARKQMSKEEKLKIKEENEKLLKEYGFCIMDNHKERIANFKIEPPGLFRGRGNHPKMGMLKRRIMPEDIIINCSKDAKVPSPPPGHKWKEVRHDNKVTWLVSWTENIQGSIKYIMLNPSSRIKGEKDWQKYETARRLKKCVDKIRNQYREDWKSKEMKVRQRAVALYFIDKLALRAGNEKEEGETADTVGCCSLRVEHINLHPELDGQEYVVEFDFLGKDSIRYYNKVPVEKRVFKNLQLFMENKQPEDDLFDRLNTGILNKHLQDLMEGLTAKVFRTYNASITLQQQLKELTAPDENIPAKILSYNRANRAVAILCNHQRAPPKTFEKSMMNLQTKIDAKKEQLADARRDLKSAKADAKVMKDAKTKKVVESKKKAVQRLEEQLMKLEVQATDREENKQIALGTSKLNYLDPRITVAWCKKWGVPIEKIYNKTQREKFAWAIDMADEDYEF
Test: Concentration relative to topotecan for topoisomerase DNA topoisomerase I cleavage
value_type: REC

Below, each entry is followed by its recorded REC result.
Can you share its REC? I mean this molecule: COc1cc2c(=O)n(CCN(C)C)c3c4cc5c(cc4nnc3c2cc1OC)OCO5
0.3

Can you share its REC? I mean this molecule: COc1cc2c(=O)n(CCN(C)C)c3c4ccc([N+](=O)[O-])cc4ncc3c2cc1OC
6

Can you share its REC? I mean this molecule: COc1cc2c(=O)n(CCN(C)C)c3c(cnc4cccc([N+](=O)[O-])c43)c2cc1OC
300

P = COc1cc2c(=O)n(CCCN(C)C)c3c4cc5c(cc4ncc3c2cc1OC)OCO5
Q = COc1cc2c(=O)n(CCN(C)C)c3c4cccc([N+](=O)[O-])c4ncc3c2cc1OC
Identify the entry with the larger REC. Options: P and Q Please respond with the label that marks your chosen entry.
Q

1 = COc1cc2c(cc1OC)-c1cnc3cc4c(cc3c1N(CCN(C)C)C2)OCO4
2 = COc1cc2c(=O)n(CCN(C)C)c3c4cc([N+](=O)[O-])ccc4ncc3c2cc1OC
Identify the entry with the larger REC. Options: 1 and 2 Please respond with the label that marks your chosen entry.
2
